- Tested on: DENV replicon cells (BHK pD2-hRucPac-2ATG30)
- EXPERIMENT DESCRIPTION: Cell viability assay (MTS) in DENV replicon cells
- Type: cell-based, baby hamster
- CONDITION SET: DENV replicon BHK cells, MTS, 72 h
Examples of molecules with documented CC50 follow.
MEASURED QUANTITY: CC50

>>> df
                                   molecule  measured_quantity  reported_result
0  NC(=O)c1nc[nH]n1 [Compound 1a, 1,2,4-Triazole-3-carboxamide]               CC50         > 665 µM
1  NC(=O)c1nc(F)c[nH]c1=O [Compound 5a, 6-fluoro-3-hydroxypyrazine-2-carboxamide, reference compound]               CC50         > 665 µM
